- System: MS2 coat protein
- test-summary: apparent KD of MS2 coat protein; designed switch direction (-1 OFF switch, 1 ON switch): -1; higher = weaker reporter binding
- run-parameters: Eterna round: R95; input ligand: FMN 200 uM
So I've got a bunch of sequences here, and I need their apparent KD of MS2 coat protein values.
Give bare numbers, in nM.

Illustrative cases are given below, each with its answer.
{"columns": ["monomer-sequence", "unit-info", "apparent KD of MS2 coat protein"],
 "data": [
  ["UAAAAGGAUGUCAGGAUAUGCGCUUGGGAUCAAGAGCAGAAGGGACAUGAGGAUCACCCAUGUAACGGUGCGAA [Oraninus] (puzzle: Brourd's mod of Exclusion 4)", "nM", 36.4],
  ["ACAAGCUUUUUGCAACAAGCAUUAAACUCUCAGAUCGUAACAUGAGGAUCACCCAUGUAAGUUUUAUGACGUCUUAU [JR_SV3TOV2_Sub095] (puzzle: Sensor v3, turn-off variant 2)", "nM", 20.8],
  ["ACUUAUAGAGGAUAUACAGAAUAUUACAUGAGGAUCACCCAUGUUCUUCAAUGUAUAUUUGUAGAAGGCUAAGGAA [EX-5 Malc#7] (puzzle: Exclusion 5)", "nM", 192],
  ["UGCUAGUCAGGAUAUACGAACAUGUCAAAAGACGUGAAGGGACAUGAGGAUCACCCAUGUAGAAGGGACUAGCA [salish99_ex2_r3_005] (puzzle: Exclusion 2)", "nM", 158]
]}

# ---- query sequence ----
Record summary for CCGAAUAAGUAGGAUAUCGUAUCGGAAACGAUACGAGAAGGGCUAACAUGAGGAUCACCCAUGUUCCUUAACGG [Fiskers Ex 6 - 16] (puzzle: Exclusion 6) : reported apparent KD of MS2 coat protein = 20

====

- Tested on: MS2 coat protein
- test-summary: apparent KD of MS2 coat protein, switch ON state; designed switch direction (-1 OFF switch, 1 ON switch): -1; higher = weaker reporter binding
- run-parameters: FMN input: 0 or 200 uM; Eterna round: R93 (includes R88 designs)
So I've got a bunch of sequences here, and I need their apparent KD of MS2 coat protein values.
Give bare numbers, in nM.

{"columns": ["monomer-sequence", "unit-info", "apparent KD of MS2 coat protein"],
 "data": [
  ["AAAAAUGGAGGAUAUACAUGAGGAUCACCCAUGUGUAACUAUACUAAGCACAAACCAAGUAGAAGGCCAAAAAA [Gilly Gone Silly 10 - Jieux - Exclusion 3]", "nM", 45.4],
  ["AGAAAACAUGAGGAUCACCCAUGUGAGGAUAUCGAUGUCCAAAAAAAAGUGCGGGACUCGAGAAGGCACUUGGA [Erbelaed]", "nM", 46.6],
  ["AAAAAGAGAGGAUAUGCAGGAGGUAAGGUCGAAAAAAAAAAACAUGAGGAUCACCCAUGUAGAAGGUUUAAAAA [Ecls2-VII]", "nM", 23.6]
]}

Parameters: items (list). Returns: apparent KD of MS2 coat protein for each item.
1. AUCAUGUUAGGAUAUAAAAGAAAAGAAAAGAAAGAAAAGAAUUAGAAGGAACAUGAGGAUCACCCAUGUAAGAA [EteRNA is fun!]
2. GAGAGACAUGAGGAUCACCCAUGUGAGGAUAUCGGGAGGAGGAGGAGGAGGAGGAGGACGAGAAGGCACGGAAG [salish99-Ex1-06]
3. AAAAAGUCAGGAUAUUCGGAUAGGAAAACGAAAACCUAUCCGAAGAAGGGACAUGAGGAUCACCCAUGUGGAAA [67% Ecls-II - Late G segment 1]

Return:
[34.7, 21.6, 88.7]

Parameters: items (list). Returns: apparent KD of MS2 coat protein for each item.
1. AAAAAUGGAGGAUAUACAUGAGGAUCACCCAUGUGUGGGCAUACUAUGUGGGCGUCAGGUAGAAGGCCAAAAAA [Gilly Gone Silly 25 - Jieux - Exclusion 3]
2. CUCUAGUCAGGAUAUUCAAGAAAAGAAAAGAAAGAAAAGAAGAAGAAGGGACAUGAGGAUCACCCAUGUAAGAA [EteRNA is fun!]
3. ACAGCGUGAGGAUAUACAUGAGGAUCACCCAUGUGAAACAGGAAAAACUGAAAGACAUGUAGAAGGCACGCUGA [Exclusion 3.3 (Janderson's 'Tweaking Eli' some more )]
4. AAAACGGCAGGAUAUACGAUUUGGAACUAGACCGAGGAACCACAUGAGGAUCACCCAUGUAGAAGGGCCAAAAA [Ex2 Malc#16]
5. AAGAAGUAAGGAUAUACAAAAUAAAAGAAAAGAAAGAAAGAACAUGAGGAUCACCCAUGUAGAAGGUACAAGAA [Sankhkare Mentuhotep III]

Return:
1: 93.7; 2: 46.7; 3: 263; 4: 17.2; 5: 38.1

Parameters: items (list). Returns: apparent KD of MS2 coat protein for each item.
1. AACUGACAUGAGGAUCACCCAUGUCAGGAUAUGCUUCAUAAAAAAAAAAAAAAAUGAUGCAGAAGGGAUAUGGG [Design 33 :P Sub-opt 9]
2. AACAUGUCAGGAUAUGUGUAAAGAAUAAAAGAAAUAACAACACAGAAGGGACAUGAGGAUCACCCAUGUCAACA [May 32]
3. AAAAACGGAGGAUAUACAUGAGGAUCACCCAUGUAAAAAAAAAAAAAGGGAAAAAAAAGUAGAAGGCCGAAAAA [Sekhemrekhutawy Pantjeny]

Return:
1: 18; 2: 26.1; 3: 39.1

Parameters: items (list). Returns: apparent KD of MS2 coat protein for each item.
1. GGUUGCGUAGGAUAUACAUGAGGAUCACCCAUGUGAGAGAAAAAAGUGAGAAAGAAAAGUAGAAGGACGUGACG [salish99-ex3-125]
2. AACAGGUCAGGAUAUGUGCAACAGAAAAGAGCAGAAUAAGCACAGAAGGGACAUGAGGAUCACCCAUGUUAACA [May 27]
3. ACAGUUACAGGAUAUACAUGGAAAAAUAAAAAUAAAAAACUACAUGAGGAUCACCCAUGUAGAAGGGUAACUGA [Ex2 Design 197: Random 12F]

Return:
1: 29.7; 2: 24.6; 3: 42.9
